assay: qHTS of IL-2 Activators; details: IL-2 activation reporter assay, cell-based qHTS; active compounds read high; in transgenic mouse T cells; stimulated with anti-CD3/CD4/CD28 beads; also: 0% is about no effect
Hit rate of the full screen: of about 360,000 compounds, about 240 (0.067%) were called active. The sample holds actives, similar compounds and a random draw of the others, so the mix is not that of the screen.
Measured activation of individual entries
A number alone suffices; assume %.

Reference set (5 entries):
compound	unit_of_measurement	observed_value
Cn1cnc(S(=O)(=O)Nc2ccc3c(c2)OCCO3)c1	%	0.511
CC(=O)CSc1nnc(CSc2ncccn2)n1C1CCCCC1	%	4.89
COc1ccc(CCC(=O)N2CCN(S(=O)(=O)c3ccc(OC)cc3)CC2)cc1	%	0.152
O=C(CSc1ccsc1[N+](=O)[O-])N1CCCCC1	%	-0.638
Cc1nn(CCOc2ccc(Br)cc2)c(C)c1[N+](=O)[O-]	%	-2.36

// lookup activation for "O=c1c(-c2ccc(Cl)cc2)[n+]([O-])c2ccccc2n1OCc1nc2ccccc2[nH]1"
-0.455

Likewise for "O=C(Oc1ccc(Br)cc1C(=S)N1CCOCC1)c1cccc([N+](=O)[O-])c1" ?
0.801

Likewise for CC1=C(C(=O)OC2CCCCC2)C(c2ccccc2F)NC(=O)N1 (stereo not given) ?
-8.28

Likewise for "COc1cccc2oc(CCc3ccccc3)cc(=O)c12" ?
2.76

---

experiment: qHTS of IL-2 Activators; details: IL-2 activation reporter assay, cell-based qHTS; active compounds read high; in transgenic mouse T cells; stimulated with anti-CD3/CD4/CD28 beads; also: 0% is about no effect
The whole screen tested about 360,000 compounds, of which about 240 (0.067%) were called active. The sample holds actives, similar compounds and a random draw of the others, so the mix is not that of the screen.
Measured activation of individual entries
A number alone suffices; assume %.

Reference set (5 entries):
compound	unit_of_measurement	activation
O=C(Nc1ccc(F)c(Cl)c1)C1CCN(S(=O)(=O)c2cccnc2)CC1	%	-4.67
CC(=O)c1cccc(NC(=O)C2CCCN(S(=O)(=O)c3cccc4nonc34)C2)c1 (configuration not stated)	%	2.63
CCC(=O)c1ccc(OCC(O)Cn2nc(C)c(C(C)=O)c2C)cc1 (configuration not stated)	%	-0.63
O=C(NCc1cccnc1)c1cc(C2CCCCN2C(=O)CCc2ccccc2)on1 (configuration not stated)	%	-0.0033
CCCc1cc(=O)[nH]c(SCc2cc(=O)oc3c(C)c(C)ccc23)n1	%	-0.327

// lookup activation for "Cc1noc(/C=C/c2ccco2)c1S(=O)(=O)N1CCC(C(=O)Nc2ccc(Cl)cn2)CC1"
-0.421

Likewise for "CC(=O)NCCC(=O)Nc1nc(C)c(Cc2ccc3c(c2)OCO3)s1" ?
-2.95

Likewise for CC(=O)Nc1ccc(CN2CCN(Cc3ccc(F)c(F)c3)C(CCO)C2)cc1 (configuration not stated) ?
-0.804

Likewise for Cc1cccc2[nH]c(CN(C)C(=O)C3CCC(=O)N(CCc4ccccc4)C3)nc12 (configuration not stated) ?
-4.62

Likewise for "Cc1ccc(-c2c[n+](=O)c3c(n2[O-])CCC3)cc1" ?
1.34

Likewise for CC(=O)CC[C@@H](C)O[C@@H]1OC(C)[C@H](O)CC1O (some centres not stated) ?
0.121

Likewise for CC1=C(C(=O)N2CCOCC2)CC(CC(=O)NCCN2CCOCC2)C(=O)N1CCC1=CCCCC1 (configuration not stated) ?
2.16

---

Measured activation of individual entries
assay: qHTS of IL-2 Activators; settings: IL-2 activation reporter assay, cell-based qHTS; active compounds read high; in transgenic mouse T cells; stimulated with anti-CD3/CD4/CD28 beads; also: 0% is about no effect
Screen size: about 360,000 compounds; about 240 (0.067%) were called active. This is one part of a sample in which actives are shown more often than they occur.
A number alone suffices; assume %.

Reference set (10 entries):
compound	activation (%)
O=C1C=CC(=O)N1c1ccc(N2CCCCC2)cc1	-7.5
CCOC(=O)c1cn[nH]c1NC(=S)Nc1ccccc1	-3.84
CCCCc1nc2cc(C(=O)NCCc3cnn(C)c3)ccc2o1	-2.8
C=C1CCC(N(O)c2cc(C)on2)C(=C)CCC2C1CC2(C)C (stereo unspecified)	-0.223
CC(C)(C)C(=O)NNC(=O)c1ccc(Oc2cc(Cl)cc(Cl)c2)o1	0.282
COc1ccc(C(=O)C2CCCN(C(=O)c3cc4nc(C)cc(C)n4n3)C2)cc1F (stereo unspecified)	-1.95
CCCNC(=O)C1(C)CCN(Cc2csc(-c3ccc(Cl)cc3)n2)C1 (stereo unspecified)	-0.168
CC(=O)c1c(C)[nH]c(C(=O)Nc2cc(S(=O)(=O)N(C)C)ccc2C)c1C	0.322
CN1CCN(S(=O)(=O)c2ccc(N3CCN(S(=O)(=O)c4cccs4)CC3)nc2)CC1	0.642
NC(=O)COc1ccc(C23CC4CC(CC(C4)C2)C3)cc1	-3.06

// lookup activation for "O=C1/C(=C\c2cccnc2)CN(Cc2ccccc2)C/C1=C\c1cccnc1"
-0.836

Likewise for "CN1CCC(CN)(N2CCN(c3ccccc3)CC2)CC1" ?
0.289

---

Measured activation of individual entries
experiment: qHTS of IL-2 Activators; settings: IL-2 activation reporter assay, cell-based qHTS; active compounds read high; in transgenic mouse T cells; stimulated with anti-CD3/CD4/CD28 beads; also: 0% is about no effect
Hit rate of the full screen: of about 360,000 compounds, about 240 (0.067%) were called active. The list comes from a sample in which actives are over-represented; it also holds close analogues and randomly drawn compounds.
A number alone suffices; assume %.

compound	unit_of_measurement	activation
CCCn1c(=O)c2[nH]c(C3CCCC3)nc2n(CCC)c1=O	%	-0.643
Cn1cccc1C1(C(F)(F)F)NCCNC1=O (centres undefined)	%	-1.5
CC(=O)NC12CC3CC(C1)CC(C(=O)N1CCN(C(=O)c4ccco4)CC1)(C3)C2	%	2.63
Cc1cc(Cl)ccc1OCc1nc(-c2ccncc2)no1	%	-0.482
Cc1ccc(CNC(=O)Cn2cnc3c(NCc4ccccc4)ncnc32)o1	%	-0.27

// lookup activation for C=CCN1C2CCCC1CC(NC(=S)Nc1cccc(OC)c1)C2 (centres undefined)
-0.0533

Likewise for "CN1CCN(c2ccc(CNS(=O)(=O)c3cccc(F)c3)cc2)CC1" ?
-0.358

Likewise for "COc1cc(C(F)(F)F)nc2c(Br)c(C(C)(C)C)nn12" ?
-2.42

Likewise for "CCOc1ccc(Nc2nc(Cc3nnc(SCC(=O)c4ccc(C)cc4)o3)cs2)cc1" ?
-0.186

Likewise for "CC(C)(C)OC(=O)Nc1ccc([C@@H](NC(=O)OC(C)(C)C)C(=O)OC(C)(C)C)cc1" ?
1.22

---

experiment: qHTS of IL-2 Activators; details: IL-2 activation reporter assay, cell-based qHTS; active compounds read high; in transgenic mouse T cells; stimulated with anti-CD3/CD4/CD28 beads; also: 0% is about no effect
Out of some 360,000 compounds screened, about 240 (0.067%) were called active. What follows is part of a selection rich in actives, with near analogues and random picks from the rest.
measurement_kind: activation (%)
A number alone suffices; assume %.

molecule	observed_value
Cc1nc2ccc(S(=O)(=O)NCC(=O)NCCN3CCCCC3C)cc2s1 (centres undefined)	0.794
NC(=O)COC(=O)c1ccc2c(c1)C(=O)N(Cc1ccco1)C2=O	-0.0741
O=C(NCc1ccccc1Cl)c1csc([C@@H]2O[C@H](CO)[C@@H](O)[C@H]2O)n1	0.0054
COc1ccc(/C=C/CN2CCN(Cc3ccc(C)cc3)C(CCO)C2)cc1 (centres undefined)	0.996
NCCN1CCN2C(=O)CN(C(=O)c3ccccc3)CC12 (centres undefined)	1.5
Cc1ccccc1-n1nnc2c(=O)oc3ccccc3c21	-0.569
Cc1c(NC(=O)CSCc2ccccc2)cccc1C(=O)O	3.04
Nc1ccc(N=Nc2ccccc2Cl)c(N)n1	0.821

// lookup activation for "CCOc1ccccc1NC(=O)C12CC3CC(C1)CC(c1ccc(C)cc1)(C3)C2"
-4.57

Likewise for CON(C)S(=O)(=O)c1ccc2c(c1)NC(=O)C1CCCN21 (centres undefined) ?
-2.38

Likewise for "Cc1cc(NC(=O)c2cc(-c3cccs3)on2)nn1Cc1ccc(Cl)cc1" ?
0.242

Likewise for "O=c1[nH]c(CSc2ccccc2)nc2c1oc1ccccc12" ?
0.844

Likewise for "COC(C[C@@H](O)C[C@H](O)[C@H](C)OCc1ccccc1)OC" ?
2.56

Likewise for "COC(=O)c1cc2c(ccn2C)n1C" ?
-0.203
